Assay: Determination of moisture contents with KF moisture meter at different time points (hygroscopicity)
Type: physicochemical
Details: temperature 23° C., humidity 92.5%, 11 h
// reported moisture content (%) for each item listed
Attribute measured: moisture content (%)

* C[C@H](O)CC(=O)O | 8.43
* CC(O)CC(=O)O (centres unmarked) [3-hydroxybutyric acid] | 17.33
* C[C@@H](O)CC(=O)[O-].[Na+] [Sodium R-3-hydroxybutyrate, sodium R-3-hydroxybutyrate] | 12.68
* C[C@H](O)CC(=O)O [S-3-hydroxybutyric acid] | 17.08
* CC(O)CC(=O)O (centres unmarked) [3-hydroxybutyric acid • sodium 3-hydroxybutyrate complex] | 8.73

----------
Assay: Determination of moisture contents with KF moisture meter at different time points (hygroscopicity)
Format: physicochemical
Settings: temperature 23° C., humidity 92.5%, 1 h
moisture content (%) vs 2%: less than gives Satisfied; not less than gives Not satisfied.

- CC(O)CC(=O)[O-].[Na+] (stereo not drawn) [Sodium 3-hydroxybutyrate, sodium 3-hydroxybutyrate]: Not satisfied
- C[C@@H](O)CC(=O)O [R-3-hydroxybutyric acid • sodium R-3-hydroxybutyrate complex]: Satisfied
- CC(O)CC(=O)O (stereo not drawn) [3-hydroxybutyric acid]: Not satisfied
- C[C@H](O)CC(=O)O [S-3-hydroxybutyric acid]: Not satisfied
- C[C@H](O)CC(=O)O: Satisfied
- CC(O)CC(=O)O (stereo not drawn) [3-hydroxybutyric acid • sodium 3-hydroxybutyrate complex]: Satisfied
- C[C@@H](O)CC(=O)O [R-3-hydroxybutyric acid]: Not satisfied
- C[C@H](O)CC(=O)[O-].[Na+] [Sodium S-3-hydroxybutyrate, sodium S-3-hydroxybutyrate]: Not satisfied

----------
// reported moisture content (%) for each item listed
Assay: Determination of moisture contents with KF moisture meter at different time points (hygroscopicity)
Type: physicochemical
Details: temperature 23° C., humidity 92.5%, 30 min
Attribute measured: moisture content (%)

- CC(O)CC(=O)[O-].[Na+] (stereo not drawn) [Sodium 3-hydroxybutyrate, sodium 3-hydroxybutyrate]: 1.15
- C[C@H](O)CC(=O)[O-].[Na+] [Sodium S-3-hydroxybutyrate, sodium S-3-hydroxybutyrate]: 1.09
- CC(O)CC(=O)O (stereo not drawn) [3-hydroxybutyric acid]: 1.32
- C[C@H](O)CC(=O)O [S-3-hydroxybutyric acid]: 1.23
- C[C@@H](O)CC(=O)[O-].[Na+] [Sodium R-3-hydroxybutyrate, sodium R-3-hydroxybutyrate]: 1.04
- C[C@H](O)CC(=O)O: 0.71
- C[C@@H](O)CC(=O)O [R-3-hydroxybutyric acid]: 1.13
- C[C@@H](O)CC(=O)O [R-3-hydroxybutyric acid • sodium R-3-hydroxybutyrate complex]: 0.54
- CC(O)CC(=O)O (stereo not drawn) [3-hydroxybutyric acid • sodium 3-hydroxybutyrate complex]: 0.61

----------
Assay: Determination of moisture contents with KF moisture meter at different time points (hygroscopicity)
Type: physicochemical
Conditions: temperature 23° C., humidity 92.5%, 2 h
// reported moisture content (%) for each item listed
Attribute measured: moisture content (%)

• CC(O)CC(=O)[O-].[Na+] (centres unmarked) [Sodium 3-hydroxybutyrate, sodium 3-hydroxybutyrate] = 3.62
• CC(O)CC(=O)O (centres unmarked) [3-hydroxybutyric acid] = 4.15
• C[C@H](O)CC(=O)O [S-3-hydroxybutyric acid] = 4.05
• C[C@@H](O)CC(=O)O [R-3-hydroxybutyric acid] = 3.96
• C[C@H](O)CC(=O)[O-].[Na+] [Sodium S-3-hydroxybutyrate, sodium S-3-hydroxybutyrate] = 3.49

----------
Assay: Determination of moisture contents with KF moisture meter at different time points (hygroscopicity)
Type: physicochemical
Conditions: temperature 23° C., humidity 92.5%, 22 h
Source text: For R-3-hydroxybutyric acid, sodium R-3-hydroxybutyrate, Mixture of R-3-hydroxybutyric acid and sodium R-3-hydroxybutyrate, as well as R-3-hydroxybutyric acid·sodium R-3-hydroxybutyrate complex of Examples 1-6, under a certain condition, KF moisture meter was used to determine the moisture contents at different time points. […]
Attribute measured: moisture content (%)

- C[C@@H](O)CC(=O)[O-].[Na+] [Sodium R-3-hydroxybutyrate, sodium R-3-hydroxybutyrate]: 24.68
- CC(O)CC(=O)[O-].[Na+] (stereo not drawn) [Sodium 3-hydroxybutyrate, sodium 3-hydroxybutyrate]: 24.95
- C[C@H](O)CC(=O)O: 16.93
- C[C@H](O)CC(=O)O [S-3-hydroxybutyric acid]: 32.95
- CC(O)CC(=O)O (stereo not drawn) [3-hydroxybutyric acid • sodium 3-hydroxybutyrate complex]: 17.63
- C[C@@H](O)CC(=O)O [R-3-hydroxybutyric acid • sodium R-3-hydroxybutyrate complex]: 17.45
- C[C@H](O)CC(=O)[O-].[Na+] [Sodium S-3-hydroxybutyrate, sodium S-3-hydroxybutyrate]: 24.53
- CC(O)CC(=O)O (stereo not drawn) [3-hydroxybutyric acid]: 33.51
- C[C@@H](O)CC(=O)O [R-3-hydroxybutyric acid]: 33.34

----------
// reported moisture content (%) for each item listed
Experiment: Determination of moisture contents with KF moisture meter at different time points (hygroscopicity)
Type: physicochemical
Conditions: temperature 23° C., humidity 92.5%, 11 h
Attribute measured: moisture content (%)

- C[C@@H](O)CC(=O)O [R-3-hydroxybutyric acid]: 17.22%
- C[C@H](O)CC(=O)[O-].[Na+] [Sodium S-3-hydroxybutyrate, sodium S-3-hydroxybutyrate]: 12.73%
- CC(O)CC(=O)[O-].[Na+] (stereo not shown) [Sodium 3-hydroxybutyrate, sodium 3-hydroxybutyrate]: 12.86%
- C[C@@H](O)CC(=O)O [R-3-hydroxybutyric acid • sodium R-3-hydroxybutyrate complex]: 8.65%

----------
Test: Determination of moisture contents with KF moisture meter at different time points (hygroscopicity)
Type: physicochemical
Settings: temperature 23° C., humidity 92.5%, 2 h
// reported moisture content (%) for each item listed
Attribute measured: moisture content (%)

- C[C@@H](O)CC(=O)[O-].[Na+] [Sodium R-3-hydroxybutyrate, sodium R-3-hydroxybutyrate]: 3.39%
- CC(O)CC(=O)O (stereo not shown) [3-hydroxybutyric acid • sodium 3-hydroxybutyrate complex]: 2.05%
- C[C@H](O)CC(=O)O: 1.85%
- C[C@@H](O)CC(=O)O [R-3-hydroxybutyric acid • sodium R-3-hydroxybutyrate complex]: 1.96%

----------
Assay: Determination of moisture contents with KF moisture meter at different time points (hygroscopicity)
Assay type: physicochemical
Conditions: temperature 23° C., humidity 92.5%, 4 h
Use MET when the recorded moisture content (%) is no lower than 5%; use NOT MET when it is lower.

* C[C@H](O)CC(=O)[O-].[Na+] [Sodium S-3-hydroxybutyrate, sodium S-3-hydroxybutyrate] | MET
* C[C@@H](O)CC(=O)[O-].[Na+] [Sodium R-3-hydroxybutyrate, sodium R-3-hydroxybutyrate] | MET
* C[C@@H](O)CC(=O)O [R-3-hydroxybutyric acid • sodium R-3-hydroxybutyrate complex] | NOT MET
* CC(O)CC(=O)[O-].[Na+] (stereo not drawn) [Sodium 3-hydroxybutyrate, sodium 3-hydroxybutyrate] | MET
* C[C@@H](O)CC(=O)O [R-3-hydroxybutyric acid] | MET
* CC(O)CC(=O)O (stereo not drawn) [3-hydroxybutyric acid] | MET
* CC(O)CC(=O)O (stereo not drawn) [3-hydroxybutyric acid • sodium 3-hydroxybutyrate complex] | NOT MET
* C[C@H](O)CC(=O)O | NOT MET
* C[C@H](O)CC(=O)O [S-3-hydroxybutyric acid] | MET

----------
Assay: Determination of moisture contents with KF moisture meter at different time points (hygroscopicity)
Type: physicochemical
Conditions: temperature 23° C., humidity 92.5%, 6 h
Attribute measured: moisture content (%)

- CC(O)CC(=O)O (stereo not drawn) [3-hydroxybutyric acid]: 9.68
- C[C@@H](O)CC(=O)O [R-3-hydroxybutyric acid]: 9.52
- C[C@H](O)CC(=O)[O-].[Na+] [Sodium S-3-hydroxybutyrate, sodium S-3-hydroxybutyrate]: 7.46
- C[C@@H](O)CC(=O)O [R-3-hydroxybutyric acid • sodium R-3-hydroxybutyrate complex]: 4.89
- C[C@H](O)CC(=O)O: 4.79
- C[C@@H](O)CC(=O)[O-].[Na+] [Sodium R-3-hydroxybutyrate, sodium R-3-hydroxybutyrate]: 7.35
- C[C@H](O)CC(=O)O [S-3-hydroxybutyric acid]: 9.53
- CC(O)CC(=O)O (stereo not drawn) [3-hydroxybutyric acid • sodium 3-hydroxybutyrate complex]: 4.99
- CC(O)CC(=O)[O-].[Na+] (stereo not drawn) [Sodium 3-hydroxybutyrate, sodium 3-hydroxybutyrate]: 7.54

----------
// reported moisture content (%) for each item listed
Test: Determination of moisture contents with KF moisture meter at different time points (hygroscopicity)
Assay type: physicochemical
Settings: temperature 23° C., humidity 92.5%, 7 h
Attribute measured: moisture content (%)

- CC(O)CC(=O)O (stereo not drawn) [3-hydroxybutyric acid • sodium 3-hydroxybutyrate complex]: 5.52
- C[C@@H](O)CC(=O)O [R-3-hydroxybutyric acid • sodium R-3-hydroxybutyrate complex]: 5.39
- C[C@H](O)CC(=O)O [S-3-hydroxybutyric acid]: 10.62
- C[C@@H](O)CC(=O)O [R-3-hydroxybutyric acid]: 10.56
- C[C@H](O)CC(=O)[O-].[Na+] [Sodium S-3-hydroxybutyrate, sodium S-3-hydroxybutyrate]: 8.15
- C[C@@H](O)CC(=O)[O-].[Na+] [Sodium R-3-hydroxybutyrate, sodium R-3-hydroxybutyrate]: 8.04
- CC(O)CC(=O)O (stereo not drawn) [3-hydroxybutyric acid]: 10.71
- CC(O)CC(=O)[O-].[Na+] (stereo not drawn) [Sodium 3-hydroxybutyrate, sodium 3-hydroxybutyrate]: 8.35
- C[C@H](O)CC(=O)O: 5.32

Hello, the source for this data is patent US20250221948A1, in case you need it.
